Experiment: in vivo
Parameters: species or system Beagle Dogs
Details: male, beagle, dog, po, 10 mg/kg, T1/2 of EX-1/NHC/CH2018
Property: half-life
State the result as a value with its unit after it.

Ask: For the compound O=c1nc(NO)ccn1[C@@H]1O[C@H](CO)[C@@H](O)[C@H]1O [EX-1/NHC/CH2018, NHC] , what half-life is on record?
Result: 7.08 h

====

Experiment: in vivo
Parameters: species or system Beagle Dogs
Conditions: male, beagle, dog, po, 10 mg/kg, AUClast of EX-1/NHC/CH2018
Protocol: Example 174: Pharmacokinetic Study of EX-2 (CH2101), Molnupiravir (CH2017) and its Metabolite NHC (CH2018) Following a Single PO Administration of EX-2 (CH2101) or Molnupiravir (CH2017) in Male and Female Beagle Dogs Both test compounds were prepared in 1% methyl cellulose (400 cps, SIGMA, SLCF9694) solution in purified water. […]
Property: AUC(0-t) (ng·h/mL)
Form entry: value (ng·h/mL) — number only.

Ask: For the molecule O=c1nc(NO)ccn1[C@@H]1O[C@H](CO)[C@@H](O)[C@H]1O , what AUC(0-t) is on record?
Result: 12500

====

Test: in vivo
Design: species or system Beagle Dogs
Settings: male, Beagle, dog, po, 22 mg/kg, AUClast of CH2107 (Molnupiravir)
Protocol: Example 174: Pharmacokinetic Study of EX-2 (CH2101), Molnupiravir (CH2017) and its Metabolite NHC (CH2018) Following a Single PO Administration of EX-2 (CH2101) or Molnupiravir (CH2017) in Male and Female Beagle Dogs Both test compounds were prepared in 1% methyl cellulose (400 cps, SIGMA, SLCF9694) solution in purified water. […]
Property: AUC(0-t) (ng·h/mL)
Form entry: value (ng·h/mL) — number only.

Ask: For the compound CC(C)C(=O)OC[C@H]1O[C@@H](n2ccc(NO)nc2=O)[C@H](O)[C@@H]1O , what AUC(0-t) is on record?
Result: 1100

====

Reported log10(half-life at 1 µM) by item:
Test: in vitro
Type: in vitro ADME
Conditions: human, plasma
Hello, just confirming the data are log10 of half-life at 1 µM with units of min.

Some entries whose results are on file:
Structure: COC(C)(C)C(=O)ONc1ccn([C@@H]2O[C@H](CO)[C@@H](O)[C@H]2O)c(=O)n1
log10(half-life at 1 µM): 0.68
--
Structure: O=C(ONc1ccn([C@@H]2O[C@H](CO)[C@@H](O)[C@H]2O)c(=O)n1)C1CC1
log10(half-life at 1 µM): 0.76
--
Structure: CC(=O)ONc1ccn([C@@H]2O[C@H](CO)[C@@H](O)[C@H]2O)c(=O)n1
log10(half-life at 1 µM): 1.06
--
Structure: CC(C)C(=O)ONc1ccn([C@@H]2O[C@H](CO)[C@@H](O)[C@H]2O)c(=O)n1
log10(half-life at 1 µM): 0.45

Moving on to another compound below.
Ask: For the compound CC(C)C(=O)OC[C@H]1O[C@@H](n2ccc(NO)nc2=O)[C@H](O)[C@@H]1O , what log10(half-life at 1 µM) is on record?
Result: 1.82

====

Assay: in vivo
Parameters: species or system Beagle Dogs
Details: female, beagle, dog, po, 10 mg/kg, Tmax of EX-1/NHC/CH2018
Property: Tmax (h)
Form entry: value (h) — number only.

Ask: For the compound O=c1nc(NO)ccn1[C@@H]1O[C@H](CO)[C@@H](O)[C@H]1O , what Tmax is on record?
Result: 1
